# melting point per entry

compound: NC(=O)CCc1cc(-c2ccccc2)ccc1-c1cc(O)cc(O)c1 [T20]
melting point: 232 to 233 °C
--
compound: NC(=O)CCc1cc(-c2ccccc2)ccc1-c1ccnc(N)c1 [T48]
melting point: 248 to 249 °C
--
compound: NC(=O)CCc1cc(-c2ccccc2)ccc1-c1ccc2c(c1)NC(=O)C2 [T25]
melting point: 219 to 222 °C
--
compound: NC(=O)CCc1cc(-c2ccccc2)ccc1-c1ccc2[nH]c(=O)[nH]c2c1 [T31]
melting point: 250 to 251 °C
